These entries and their values trace back to paper PMC12062876.

IC50 values by entry
Assay Name: Cytotoxicity assay: L-6 cells
Type: cell-based
Test Conditions: rat skeletal myoblast (L6 cells); means of two independent assays
Dear colleague, please return just the value in µM, with no unit written.

Answered examples (10):
C=C(C)[C@H]1Cc2cc3c(cc2O1)oc(=O)c1c2cc4c(cc2oc31)OCO4    119
CC1(C)C=Cc2c(ccc3c(=O)c(-c4cc(O)c5c(c4)OCO5)coc23)O1    123
COc1ccc(-c2coc3cc(O)ccc3c2=O)cc1    224
CC(=O)OC1C2c3c(ccc4c3OC(c3ccccc3)CC4=O)OC2OC1(C)C (single isomer, unassigned; (-)) [Compound 11, (−)-purpurin]    6.25
COc1cc2c(cc1OC)[C@]1(O)[C@H](OC(C)=O)c3ccc4occc4c3O[C@@H]1CO2 (relative stereo)    98.2
COc1cc2c(cc1C1COc3cc(O)ccc3C1)OCO2 (centres unmarked)    75.4
C=C(C)[C@H]1Cc2c(ccc3c2O[C@@H]2COc4cc(OC)c(OC)cc4[C@@H]2C3=O)O1    0.48
COc1cc([C@@H]2c3cc4c(cc3[C@H](O)[C@H]3COC(=O)[C@H]23)OCO4)cc(OC)c1OC [Podophyllotoxin, reference compound]    0.02
COc1cc2c(cc1OC)C1C(CO2)Oc2c(ccc3occc23)C1OC(C)=O (centres unmarked)    104
CC(=O)OC(C1COc2ccc3c(c21)OC(c1ccccc1)CC3=O)C(C)(C)O (centres unmarked)    131

API: the following record is the query input.
Input line: Answer with the recorded IC50 of O=c1cc(-c2ccccc2)oc2c1ccc1occc12 only.
Output line: 130
